Biological target: Isoform Alpha-4-2 of Neuronal acetylcholine receptor subunit alpha-4 (Alpha-4-2)/Neuronal acetylcholine receptor subunit beta-2 (Rat, UniProt P09483+P12390)
Sequence (P09483 as listed by the source): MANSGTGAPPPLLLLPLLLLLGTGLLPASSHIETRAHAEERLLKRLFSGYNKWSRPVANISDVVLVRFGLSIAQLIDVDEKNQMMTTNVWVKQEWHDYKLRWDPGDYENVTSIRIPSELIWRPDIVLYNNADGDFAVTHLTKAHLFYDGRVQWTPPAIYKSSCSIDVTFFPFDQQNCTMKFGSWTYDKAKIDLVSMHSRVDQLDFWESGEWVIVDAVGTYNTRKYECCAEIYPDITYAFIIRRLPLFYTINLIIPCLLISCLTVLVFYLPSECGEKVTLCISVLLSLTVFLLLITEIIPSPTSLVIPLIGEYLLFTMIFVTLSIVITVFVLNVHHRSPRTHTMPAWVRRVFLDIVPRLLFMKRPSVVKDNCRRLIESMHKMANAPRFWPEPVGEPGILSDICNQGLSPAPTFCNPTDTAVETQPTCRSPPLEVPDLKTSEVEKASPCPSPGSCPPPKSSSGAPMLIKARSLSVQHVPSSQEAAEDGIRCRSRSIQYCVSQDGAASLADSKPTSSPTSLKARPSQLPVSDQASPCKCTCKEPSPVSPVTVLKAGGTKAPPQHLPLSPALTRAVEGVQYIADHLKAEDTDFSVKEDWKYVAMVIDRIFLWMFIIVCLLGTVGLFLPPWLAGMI
Sequence (P12390 whole entry, canonical isoform): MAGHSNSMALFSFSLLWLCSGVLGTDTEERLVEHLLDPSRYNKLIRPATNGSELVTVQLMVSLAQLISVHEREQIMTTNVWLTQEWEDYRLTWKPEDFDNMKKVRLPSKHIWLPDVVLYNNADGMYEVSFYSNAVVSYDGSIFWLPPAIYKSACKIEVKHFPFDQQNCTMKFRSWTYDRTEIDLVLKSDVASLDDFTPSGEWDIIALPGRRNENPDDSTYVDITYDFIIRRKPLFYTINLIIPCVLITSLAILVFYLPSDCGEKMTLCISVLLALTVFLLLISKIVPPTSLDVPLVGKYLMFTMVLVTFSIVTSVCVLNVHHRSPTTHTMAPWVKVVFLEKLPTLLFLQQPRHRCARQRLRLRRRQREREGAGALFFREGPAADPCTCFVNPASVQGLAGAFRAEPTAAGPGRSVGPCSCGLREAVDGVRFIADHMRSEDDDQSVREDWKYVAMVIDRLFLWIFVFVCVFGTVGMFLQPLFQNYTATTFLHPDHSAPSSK
Test: Adult male rat cerebral cortices (Pelfreeze Biological, Rogers, Ark.) were homogenized in 39 volumes of ice-cold 50 mM Tris buffer (pH 7.4 at 4° C.) containing 120 mM NaCl, 5 mM KCl, 2 mM CaCl2, and 1 mM MgCl2 and sedimented at 37,000 g for 10 min at 4° C. The supernatant was discarded, the pellet resuspended in the original volume of buffer, and the wash procedure repeated twice more. After the last centrifugation, the pellet was resuspended in 1/10 its original homogenization volume and stored at −80° C. until needed. […] Total and nonspecific bindings were determined in the presence of vehicle and 300 μM (−)-ni
Details: 25 °C
Measurement label: pKi
Please note pKi is a logarithmic value: minus log10 of concentration in mol/L. Answer with that number alone.

Recorded result, Clc1ncc(C2CC3CCC2N3)cc1-c1cncnc1 (stereo not drawn) [US9284322, Table 7, Compound 3] , pKi: 9.49

Recorded result, Fc1ncc(C2CC3CCC2N3)cc1-c1cncnc1 (stereo not drawn) [US9284322, Table 7, Compound 2] , pKi: 9.08

Recorded result, c1ncc(-c2cncc(C3CC4CCC3N4)c2)cn1 (stereo not drawn) [US9284322, Table 7, Compound 1] , pKi: 9.92
